Measured EC50 of individual entries
experimental_protocol: inhibitors of intracellular T. cruzi replication, confirmation, NIH3T3 host cells, beta-gal luminescence (AID 2044);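 also: intracellular parasites grown in NIH/3T3 mouse fibroblasts as host cells; luminescent beta-galactosidase reporter signal from transgenic T. cruzi replicating inside host cells; inhibitors lower the luminescence signal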
Type: functional, cell-based
Calls of active or inactive are those of the source.

Solved entries (count: 5):
molecule: CC1CCN(S(=O)(=O)c2ccc(NC(=O)Cn3nnc(-c4ccccc4F)n3)cc2)CC1
EC50: 2230 nM (active)
--
molecule: CCOC(=O)/C(=N\Nc1ccc(OC)cc1)c1csc(Nc2ccccc2)n1
EC50: 1330 nM (active)
--
molecule: Cc1cc(C)c(-c2csc(NC(=O)c3cc([N+](=O)[O-])ccc3N3CCOCC3)n2)c(C)c1
EC50: 1440 nM (active)
--
molecule: COc1ccc(C)cc1NC(=O)CCC(=O)Nc1ccc2nc(N3CCN(C)CC3)cc(C)c2c1
EC50: 635 nM (active)
--
molecule: CC(C)N1CCN(Cc2ccc3c(c2)Cc2ccccc2-3)CC1CCO (centres undefined)
EC50: 532 nM (active)

Briefly, EC50 measured for Cc1cc(C)n2nc(C(=O)NCc3cccc(C(F)(F)F)c3)nc2n1 : > 60000 nM (not active)

Briefly, EC50 measured for O=c1c2cc(NC(=S)NCCCN3CCC(Cc4ccccc4)CC3)ccc2nc2n1CCCCC2 : 2090 nM (active)

Briefly, EC50 measured for Cc1ccccc1OCCn1cnc2cc([N+](=O)[O-])ccc2c1=O : 615 nM (active)

Briefly, EC50 measured for C(=N\Nc1nc(Nc2ccccc2)nc(N2CCOCC2)n1)/c1c[nH]c2ccccc12 : < 100 nM (active)

====

target_under_test: Tyrosyl-DNA phosphodiesterase 2 (Homo sapiens, UniProt O95551)
Sequence (O95551 whole entry): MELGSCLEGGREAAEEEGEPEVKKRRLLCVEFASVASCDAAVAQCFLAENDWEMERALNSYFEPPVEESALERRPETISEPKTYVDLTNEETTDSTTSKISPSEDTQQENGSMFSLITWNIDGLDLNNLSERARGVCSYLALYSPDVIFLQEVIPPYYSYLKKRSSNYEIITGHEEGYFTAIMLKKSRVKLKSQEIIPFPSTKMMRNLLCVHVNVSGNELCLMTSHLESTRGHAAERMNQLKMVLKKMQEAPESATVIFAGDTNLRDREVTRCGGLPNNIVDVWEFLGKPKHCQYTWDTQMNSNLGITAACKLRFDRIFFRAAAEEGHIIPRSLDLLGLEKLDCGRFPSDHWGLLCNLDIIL
experimental_protocol: human TDP2 enzyme inhibitors, dose response, biochemical, epi absorbance, IC50 (AID 743297)
The source made the active and inactive calls.
In this exercise, the only acceptable responses are TRUE for active, FALSE for inactive

Study these solved cases before continuing.
smiles_structure: O=C(O)c1ccc(NC2=C/C(=N/S(=O)(=O)c3cccs3)c3ccccc3C2=O)cc1
target_under_test: Tyrosyl-DNA phosphodiesterase 2 (Homo sapiens, UniProt O95551)
label_class: TRUE

smiles_structure: Nc1ccc(N2CCCCC2)c2nonc12
target_under_test: Tyrosyl-DNA phosphodiesterase 2 (Homo sapiens, UniProt O95551)
label_class: FALSE

smiles_structure: Cc1ccc(S(=O)(=O)/N=C2\C=C(Nc3cccc(C(=O)O)c3)C(=O)c3ccccc32)c(C)c1
target_under_test: Tyrosyl-DNA phosphodiesterase 2 (Homo sapiens, UniProt O95551)
label_class: TRUE

Fill in: this test's call for O=C(O)CSc1cc(NS(=O)(=O)c2cccc([N+](=O)[O-])c2)c2ccccc2c1O is ___ FALSE

====

Measured IC50 of individual entries
target_under_test: Induced myeloid leukemia cell differentiation protein Mcl-1 (Homo sapiens)
Sequence (Q07820 whole entry): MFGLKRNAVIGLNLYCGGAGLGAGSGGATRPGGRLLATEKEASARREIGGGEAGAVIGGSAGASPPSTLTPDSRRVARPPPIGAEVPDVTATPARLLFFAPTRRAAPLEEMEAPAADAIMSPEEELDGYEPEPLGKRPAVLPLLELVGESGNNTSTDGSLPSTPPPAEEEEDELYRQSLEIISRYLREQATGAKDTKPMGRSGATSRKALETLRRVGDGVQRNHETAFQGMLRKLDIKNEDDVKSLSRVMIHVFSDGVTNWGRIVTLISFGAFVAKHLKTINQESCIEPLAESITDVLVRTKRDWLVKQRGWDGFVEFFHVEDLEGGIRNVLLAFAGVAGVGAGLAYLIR
Type: functional
Activity calls are given as the source filed them.

Briefly, IC50 measured for O=C(O)CSc1cc(NS(=O)(=O)c2cccc([N+](=O)[O-])c2)c2ccccc2c1O : 13.6 µM (active)

Briefly, IC50 measured for CN1CCN(S(=O)(=O)c2ccc(NC(=S)NC(=O)c3ccc(Cl)cc3)cc2)CC1 : 4.19 µM (active)

Briefly, IC50 measured for COCCN1Cc2cccc(C(=O)Nc3cccc(C)c3C)c2C1=O : 6.79 µM (not active)

Briefly, IC50 measured for Nc1ccc(C2=Nc3cccc4cccc(c34)N2)cc1 : 2.86 µM (active)

Briefly, IC50 measured for COc1ccc2[nH]c3c(C)c4ccncc4c(C)c3c2c1 : > 54 µM (active)

Briefly, IC50 measured for N#Cc1cc(-c2ccccc2)nn1-c1ccccc1 : 1.44 µM (active)

// data source = ChEMBL document CHEMBL1201862
